Cited source for all entries: patent US20250215104A1

# Target Under Test: T1, cynomolgus soluble urokinase plasminogen activator receptor (suPAR) (cynomolgus, UniProt Q9GK78 23-303, limits assumed)
# T1 construct: Target antigen of the off-rate screen; also called cynomolgus uPAR; cynomolgus suPAR
# T1 sequence (Q9GK78 23-303 limits assumed): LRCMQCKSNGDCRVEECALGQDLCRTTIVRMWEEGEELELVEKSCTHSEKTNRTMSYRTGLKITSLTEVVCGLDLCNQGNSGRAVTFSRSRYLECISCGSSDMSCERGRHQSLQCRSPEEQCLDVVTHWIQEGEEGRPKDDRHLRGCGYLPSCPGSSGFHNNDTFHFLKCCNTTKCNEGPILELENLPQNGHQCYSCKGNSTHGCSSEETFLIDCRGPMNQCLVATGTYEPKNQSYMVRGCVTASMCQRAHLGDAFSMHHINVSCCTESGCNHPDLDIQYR
# Method: off-rate (kdis) screen of scFv clones, biosensor (Octet)
Measured log10(koff), listed per entry for reference.
Would you kindly interpret these values as log10 of koff expressed in s⁻¹?

suPAR_DB01_D12 (scFv, V domains shown, screened as scFv) VH: QVQLVQSGAEVKKPGASVKVSCKASGYTFTSYYMHWVRQAPGQGLEWMGWIDPENGSTIYDQKFQGRVTMTRDTSTSTVYMELSSLRSEDTAVYYCARGYDVDWFVYWGQGTLVTVSS VL: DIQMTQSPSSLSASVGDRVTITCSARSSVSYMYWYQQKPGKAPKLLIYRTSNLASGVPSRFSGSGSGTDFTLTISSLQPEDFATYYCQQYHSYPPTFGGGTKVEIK
-3.63
suPAR_DB01_D08 (scFv, V domains shown, screened as scFv) VH: QVQLVQSGAEVKKPGASVKVSCKASGYTFTSYYMHWVRQAPGQGLEWMGWIDHENGSTIYAQKFQGRVTMTRDTSTSTVYMELSSLRSEDTAVYYCARGYDVDWFVYWGQGTLVTVSS VL: DIQMTQSPSSLSASVGDRVTITCRASSSVSYMYWYQQKPGKAPKLLIYRTSNLASGVPSRFSGSGSGTDFTLTISSLQPEDFATYYCQQYHSYPPTFGGGTKVEIK
-6.15
suPAR_DB01_D02 (scFv, V domains shown, screened as scFv) VH: QVQLVQSGAEVKKPGASVKVSCKASGYTFTSYYMHWVRQAPGQGLEWMGWIDPNTGDTNYAQKFQGRVTMTRDTSTSTVYMELSSLRSEDTAVYYCARGYDVDWFVYWGQGTLVTVSS VL: DIQMTQSPSSLSASVGDRVTITCRARSSVSYMYWYQQKPGKAPKLLIYRTSNLASGVPSRFSGSGSGTDFTLTISSLQPEDFATYYCQQYHSYPPTFGGGTKVEIK
-3.46

Request: Fill in the blank: the reported log10(koff) of suPAR_DB01_B03 (scFv, V domains shown, screened as scFv) VH: QVQLVQSGAEVKKPGASVKVSCKASGFNIKDYYIHWVRQAPGQGLEWMGWIDPENGNTIYAQKFQGRVTMTRDTSTSTVYMELSSLRSEDTAVYYCARGYDVDWFVYWGQGTLVTVSS VL: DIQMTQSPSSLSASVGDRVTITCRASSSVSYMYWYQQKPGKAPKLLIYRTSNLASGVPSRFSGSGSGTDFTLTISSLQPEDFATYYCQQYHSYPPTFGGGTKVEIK is ____.
Response: -6.46

Request: Fill in the blank: the reported log10(koff) of suPAR_DB01_A04 (scFv, V domains shown, screened as scFv) VH: QVQLVQSGAEVKKPGASVKVSCKASGYTFTGYYMHWVRQAPGQGLEWMGWIDHENGNTIYDQKFQGRVTMTRDTSTSTVYMELSSLRSEDTAVYYCARGYDVDWFVYWGQGTLVTVSS VL: DIQMTQSPSSLSASVGDRVTITCSASQSVSYMYWYQQKPGKAPKLLIYRTSNLASGVPSRFSGSGSGTDFTLTISSLQPEDFATYYCQQYHSYPPTFGGGTKVEIK is ____.
Response: -3.68
